Biological target: T1, human PD-1 protein (human, UniProt Q15116 25-167, limits assumed)
T1 construct: also called human PD-1 antigen
T1 sequence (Q15116 25-167 limits assumed): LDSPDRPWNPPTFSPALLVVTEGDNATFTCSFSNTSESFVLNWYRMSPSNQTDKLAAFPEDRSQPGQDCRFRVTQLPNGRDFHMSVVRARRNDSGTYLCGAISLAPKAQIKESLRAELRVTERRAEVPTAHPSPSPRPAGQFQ
Test: SPR, binding kinetics to human PD-1

# binder, kon (M⁻¹ s⁻¹)
records = [
    ("AHF16570 (antibody, V domains shown) VH: QVQLVQSGAEVKKPGASVKVSCKASGYTFTGYWMHWVRQAPGQGLEWIGMIHPNSDTTIYNWKFKNRVTMTRDTSISTAYMELSRLRSDDTAVYYCAGTDQAAWAGFWGQGTTVTVSS VL: DIVMTQTPLSLSVTPGQPASISCRSSQNIVRSQGDTYLEWYLQKPGQSPQLLIYKVSKRFSGVPDRFSGSGSGTDFTLKISRVEAEDVGVYYCFQGSHVPWTFGGGTKVEIK", 164000),
    ("AHF16565 (antibody, V domains shown) VH: QVQLVQSGAEVKKPGASVKVSCKASGYTFTGYWMHWVRQAPGQGLEWIGMIHPNSDTTVYNWKFKNRVTMTRDTSISTAYMELSRLRSDDTAVYYCAGTDQEAWHGFWGQGTTVTVSS VL: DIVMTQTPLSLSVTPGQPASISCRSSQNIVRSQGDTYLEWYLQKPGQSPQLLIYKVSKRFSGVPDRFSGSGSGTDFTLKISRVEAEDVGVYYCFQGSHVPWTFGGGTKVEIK", 130000),
    ("AHF16566 (antibody, V domains shown) VH: QVQLVQSGAEVKKPGASVKVSCKASGYTFTGYWMHWVRQAPGQGLEWIGMIHPNSDTTVYNWKFKNRVTMTRDTSISTAYMELSRLRSDDTAVYYCAGTDQAAWAAFWGQGTTVTVSS VL: DIVMTQTPLSLSVTPGQPASISCRSSQNIVHSQGDTYLEWYLQKPGQSPQLLIYKVSKRFSGVPDRFSGSGSGTDFTLKISRVEAEDVGVYYCFQGSHVPWTFGGGTKVEIK", 215000),
    ("AHF16563 (antibody, V domains shown) VH: QVQLVQSGAEVKKPGASVKVSCKASGYTFTGYWMHWVRQAPGQGLEWIGMIHPNSDTTVYNWKFKNRVTMTRDTSISTAYMELSRLRSDDTAVYYCAGTDQEAWMGFWGQGTTVTVSS VL: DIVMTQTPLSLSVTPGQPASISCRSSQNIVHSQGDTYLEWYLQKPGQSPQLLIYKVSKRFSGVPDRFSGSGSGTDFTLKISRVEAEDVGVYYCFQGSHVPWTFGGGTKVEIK", 218000),
    ("AHF16556 (antibody, V domains shown) VH: QVQLVQSGAEVKKPGASVKVSCKASGYTFTGYWMHWVRQAPGQGLEWIGMIHPNSDTTVYNWKFKNRVTMTRDTSISTAYMELSRLRSDDTAVYYCAGTDQEAWAAFWGQGTTVTVSS VL: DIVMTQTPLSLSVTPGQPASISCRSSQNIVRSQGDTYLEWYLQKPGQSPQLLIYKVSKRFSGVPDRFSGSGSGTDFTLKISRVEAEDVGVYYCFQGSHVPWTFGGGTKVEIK", 148000),
]

Recorded values, source patent US20240034796A1.
